# collection of GI50 values tested on SK-OV-3
Please state the value followed by its unit.

Solved cases (3 shown):
Cc1cc2nc3c4ccccc4n(CCN(C)C)c3nc2cc1C [B220, reference compound]; 3100 nM
Cc1cc2nc3c4cc(N)ccc4n(CCN(C)C)c3nc2cc1C [JBD-136]; 2230 nM
Cc1cc2nc3c4cc([N+](=O)[O-])ccc4n(CCN(C)C)c3nc2cc1C [JBA-185]; 704 nM

Recall the recorded GI50 for COc1ccc2c(c1)c1nc3cc(C)c(C)cc3nc1n2CCN(C)C [JBA-094] with SK-OV-3 and state it.
1500 nM

Recall the recorded GI50 for Cc1cc2nc3c4cc(O)ccc4n(CCN(C)C)c3nc2cc1C [JBD-139] with SK-OV-3 and state it.
1160 nM

====

# collection of GI50 values tested on MDA-MB-435
Output spec: scalar in µM, unitless text.

Solved cases (2 shown):
COc1ccc2c(c1)c1nc3cc(C)c(C)cc3nc1n2CCN(C)C; 1.11
Cc1cc2nc3c4cc(O)ccc4n(CCN(C)C)c3nc2cc1C; 0.529

Which GI50 reading was recorded for the molecule Cc1cc2nc3c4cc([N+](=O)[O-])ccc4n(CCN(C)C)c3nc2cc1C ?
0.541

Which GI50 reading was recorded for the molecule Cc1cc2nc3c4ccccc4n(CCN(C)C)c3nc2cc1C [B220, reference compound] ?
1.61

Which GI50 reading was recorded for the molecule Cc1cc2nc3c4cc(N)ccc4n(CCN(C)C)c3nc2cc1C ?
1.05

====

Listing of recorded GI50 by entry.
Tested on: MALME-3M
Output spec: scalar in µM, unitless text.

Solved cases (4 shown):
Cc1cc2nc3c4cc([N+](=O)[O-])ccc4n(CCN(C)C)c3nc2cc1C; 0.542
Cc1cc2nc3c4ccccc4n(CCN(C)C)c3nc2cc1C [B220, reference compound]; 1.41
Cc1cc2nc3c4cc(N)ccc4n(CCN(C)C)c3nc2cc1C; 1.27
COc1ccc2c(c1)c1nc3cc(C)c(C)cc3nc1n2CCN(C)C; 1.11

Let's switch to this compound now.
Recall the recorded GI50 for Cc1cc2nc3c4cc(O)ccc4n(CCN(C)C)c3nc2cc1C with MALME-3M and state it.
0.623

====

Test system: MDA-MB-231/ATCC
Experiment: Human tumor cell line growth assay (SRB)
Type: cell-based
Details: Breast, 48 h, read-out: LC50 (the source's name)
Observation Type: CC50 (µM)
Output spec: scalar in µM, unitless text.

COc1ccc2c(c1)c1nc3cc(C)c(C)cc3nc1n2CCN(C)C [JBA-094]; 6.39
Cc1cc2nc3c4ccccc4n(CCN(C)C)c3nc2cc1C [B220, reference compound]; 54.9

Let's switch to this compound now.
Which CC50 reading was recorded for the compound Cc1cc2nc3c4cc(N)ccc4n(CCN(C)C)c3nc2cc1C [JBD-136] ?
57.5

====

Test: Human tumor cell line growth assay (SRB)
Format: cell-based
Settings: human, MDA-MB-435 cells (melanoma), MDA-MB-435, 48 h, read-out: LC50
Observation Type: CC50 at 48 h (µM)
Output spec: scalar in µM, unitless text.

Cc1cc2nc3c4cc(N)ccc4n(CCN(C)C)c3nc2cc1C; 5.6
Cc1cc2nc3c4cc([N+](=O)[O-])ccc4n(CCN(C)C)c3nc2cc1C; 4.5
COc1ccc2c(c1)c1nc3cc(C)c(C)cc3nc1n2CCN(C)C; 6.03

Which CC50 at 48 h reading was recorded for the compound Cc1cc2nc3c4ccccc4n(CCN(C)C)c3nc2cc1C [B220, reference compound] ?
7.49
